These data points were gathered from ChEMBL document CHEMBL4251631.

Measurement Notes: Half life in human serum at 2 mM by HPLC analysis
Assay type: ADME, cell-free
Output: class label from half-life at 2000 µM. Mapping: lo: < 10 h; mid: ≥ 10 h and < 30 h; hi: ≥ 30 h

Qu. Form field 'band' for `O=C(O[C@H]1C[C@H](n2cc(F)c(=O)[nH]c2=O)O[C@@H]1COP(=O)(O)Oc1ccc2ncccc2c1)c1ccccc1`
Ans. mid

Qu. Subsequent entry: `CCOC(=O)C[n+]1cccc2cc(OP(=O)([O-])OC[C@H]3O[C@@H](n4cc(F)c(=O)[nH]c4=O)C[C@@H]3OC(=O)c3ccccc3)ccc21`
Ans. lo

Qu. Please do the same for `CCOC(=O)C[n+]1cccc(OP(=O)([O-])OC[C@H]2O[C@@H](n3cc(F)c(=O)[nH]c3=O)C[C@@H]2OC(=O)c2ccccc2)c1` as well.
Ans. lo

Qu. Field entry: `O=c1[nH]c(=O)n([C@H]2C[C@H](O)[C@@H](COP(=O)(O)Oc3cccnc3)O2)cc1F`
Ans. mid

Qu. Repeat for the following compound: `O=c1[nH]c(=O)n([C@H]2C[C@H](O)[C@@H](COP(=O)(O)Oc3ccccc3)O2)cc1F`
Ans. hi

Qu. Also `C[N+](C)(C)CCOP(=O)([O-])OC[C@H]1O[C@@H](n2cc(F)c(=O)[nH]c2=O)C[C@@H]1OC(=O)c1ccccc1` ?
Ans. hi

Qu. Param item: `O=C(O[C@H]1C[C@H](n2cc(F)c(=O)[nH]c2=O)O[C@@H]1COP(=O)([O-])Oc1ccc[n+](Cc2ccccc2)c1)c1ccccc1`
Ans. mid

Qu. Continue with `C[n+]1cccc(OP(=O)([O-])OC[C@H]2O[C@@H](n3cc(F)c(=O)[nH]c3=O)C[C@@H]2OC(=O)c2ccccc2)c1`
Ans. hi

Qu. Queued: `O=C(O[C@H]1C[C@H](n2cc(F)c(=O)[nH]c2=O)O[C@@H]1COP(=O)(O)Oc1cccnc1)c1ccccc1`
Ans. mid

Qu. Try `C[N+]1(C)CCC(OP(=O)([O-])OC[C@H]2O[C@@H](n3cc(F)c(=O)[nH]c3=O)C[C@@H]2OC(=O)c2ccccc2)CC1` next.
Ans. hi

Qu. Same question, `CCCCCCCCCC[n+]1cccc(OP(=O)([O-])OC[C@H]2O[C@@H](n3cc(F)c(=O)[nH]c3=O)C[C@@H]2OC(=O)c2ccccc2)c1` this time
Ans. lo

Qu. Ok, now `O=C(O[C@H]1C[C@H](n2cc(F)c(=O)[nH]c2=O)O[C@@H]1COP(=O)(O)Oc1ccccc1)c1ccccc1`
Ans. lo

Qu. And then C[N+]1(Cc2ccccc2)C2CCC1CC(OP(=O)([O-])OC[C@H]1O[C@@H](n3cc(F)c(=O)[nH]c3=O)C[C@@H]1OC(=O)c1ccccc1)C2 (stereo partly specified) , what is it?
Ans. hi

Qu. Could you do the same for `CCCCCCCCCc1ccc(OP(=O)(O)OC[C@H]2O[C@@H](n3cc(F)c(=O)[nH]c3=O)C[C@@H]2OC(=O)c2ccccc2)cc1` , please?
Ans. hi

Qu. What do you have for `O=c1[nH]c(=O)n([C@H]2C[C@H](O)[C@@H](COP(=O)(O)Oc3ccc4ncccc4c3)O2)cc1F` ?
Ans. mid

Qu. Then this compound: `C[N+](C)(CCOP(=O)([O-])OC[C@H]1O[C@@H](n2cc(F)c(=O)[nH]c2=O)C[C@@H]1OC(=O)c1ccccc1)Cc1ccccc1`
Ans. hi
